Would you mind telling me the reported IC50 of each entry?
- System name: ENL YEATS domain (association with H3K27cr) (Homo sapiens, UniProt Q03111)
- Sequence (Q03111 1-148): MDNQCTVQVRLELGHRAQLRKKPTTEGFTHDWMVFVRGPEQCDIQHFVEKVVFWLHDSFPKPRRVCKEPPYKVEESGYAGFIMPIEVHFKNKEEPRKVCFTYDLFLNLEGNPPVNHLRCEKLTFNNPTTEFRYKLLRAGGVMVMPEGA
- Experiment: biochemical
- Condition details: ENL (YEATS)-H3K27cr HTRF (IC50, μM), Table 2

Req: Looking for the measured IC50 of CC(C)NC(=O)c1ccc2nc(Cn3ccnc3)cn2c1 [Compound 90] , can you help?
Resp: 26.6 µM

Req: Looking for the measured IC50 of CC(C)NC(=O)c1ccc2nc(-c3cccc(NS(=O)(=O)NCCCN4CCCC4=O)c3)cn2c1 [Compound 53] , can you help?
Resp: 0.88 µM

Req: Looking for the measured IC50 of CC(C)NC(=O)c1ccc2nc(-c3cccc([N+](=O)[O-])c3)cn2c1 [Compound 36] , can you help?
Resp: 3.7 µM

Req: Looking for the measured IC50 of O=C(NC1CCC1)c1ccc2nc(-c3cccc(NS(=O)(=O)CCCN4CCCCC4)c3)cn2c1 [Compound 104] , can you help?
Resp: 0.134 µM

Req: Looking for the measured IC50 of CC(C)NC(=O)c1ccc2nc(-c3cccc(NS(=O)(=O)NCCO)c3)cn2c1 [Compound 57] , can you help?
Resp: 0.43 µM

Req: Looking for the measured IC50 of O=C(NC1CCC1)c1ccc2nc(-c3cccc(S(=O)(=O)NCCCN4CCCCC4)c3)cn2c1 [Compound 105] , can you help?
Resp: 0.84 µM

Req: Looking for the measured IC50 of Cc1ccc(-c2cn3cc(C(=O)NC(C)C)ccc3n2)cc1C [Compound 25] , can you help?
Resp: > 50 µM

Req: Looking for the measured IC50 of CC(NC(=O)c1ccc2nc(-c3ccccc3)cn2c1)c1ccncc1 (centres unmarked) [Compound 24] , can you help?
Resp: 12 µM

Req: Looking for the measured IC50 of CNS(=O)(=O)Nc1cccc(-c2cn3cc(C(=O)NC(C)C)ccc3n2)c1 [Compound 52] , can you help?
Resp: 0.39 µM

Req: Looking for the measured IC50 of CC(C)NC(=O)c1ccc2nc(-c3cccc(NS(=O)(=O)NCc4ccc(F)cc4)c3)cn2c1 [Compound 51] , can you help?
Resp: 1.02 µM

Req: Looking for the measured IC50 of O=C(NC1Cc2ccccc2C1)c1ccc2nc(-c3ccccc3)cn2c1 [Compound 77] , can you help?
Resp: > 50 µM

Req: Looking for the measured IC50 of CC(C)NC(=O)c1ccc2nc(-c3cccc(NS(=O)(=O)NCCCn4ccnc4)c3)cn2c1 [Compound 67] , can you help?
Resp: 0.33 µM

Req: Looking for the measured IC50 of CC(C)NC(=O)c1ccc2nc(-c3cccc(NS(=O)(=O)NCCCO)c3)cn2c1 [Compound 44] , can you help?
Resp: 0.56 µM

Req: Looking for the measured IC50 of COc1ccc(-c2cn3cc(C(=O)NC4CCC4)ccc3n2)cc1 [Compound 78] , can you help?
Resp: 3.27 µM

Req: Looking for the measured IC50 of CC(C)NC(=O)c1ccc2nc(-c3cccc(NS(=O)(=O)NCCCN4CCOCC4)c3)cn2c1 [Compound 45] , can you help?
Resp: 0.55 µM

Req: Looking for the measured IC50 of CC(C)NC(=O)c1ccc2nc(-c3ccccc3)cn2c1 [Compound 1] , can you help?
Resp: 4 µM

Req: Looking for the measured IC50 of CC(C)NC(=O)c1ccc2nc(-c3ccccn3)cn2c1 [Compound 91] , can you help?
Resp: 14.8 µM

Req: Looking for the measured IC50 of CC(C)NC(=O)c1ccc2nc(-c3cccc(NS(=O)(=O)NCCC(=O)O)c3)cn2c1 [Compound 66] , can you help?
Resp: 0.63 µM

Req: Looking for the measured IC50 of O=C(NCCN1CCCCC1)c1cccc(-c2cn3cc(C(=O)NC4CCC4)ccc3n2)c1 [Compound 108] , can you help?
Resp: 0.124 µM

Req: Looking for the measured IC50 of CC1(NC(=O)c2ccc3nc(-c4ccccc4)cn3c2)CCC1 [Compound 73] , can you help?
Resp: > 50 µM

Req: Looking for the measured IC50 of CC(C)NC(=O)c1ccc2nc(-c3cccc(NS(=O)(=O)NCc4ccc(O)cc4)c3)cn2c1 [Compound 47] , can you help?
Resp: 0.37 µM

Req: Looking for the measured IC50 of O=C(NC1CCC(O)CC1)c1ccc2nc(-c3ccccc3)cn2c1 (centres unmarked) [Compound 2] , can you help?
Resp: > 50 µM

Req: Looking for the measured IC50 of COC1CCN(CCNS(=O)(=O)Nc2cccc(-c3cn4cc(C(=O)NC5CCC5)ccc4n3)c2)CC1 [Compound 94] , can you help?
Resp: 0.197 µM

Req: Looking for the measured IC50 of O=C(NC1CCCC1)c1ccc2nc(-c3ccccc3)cn2c1 [Compound 23] , can you help?
Resp: 1.8 µM

Req: Looking for the measured IC50 of CC(C)N(C)C(=O)c1ccc2nc(-c3ccccc3)cn2c1 [Compound 8] , can you help?
Resp: > 50 µM

Req: Looking for the measured IC50 of O=C(NC1CC(F)(F)C1)c1ccc2nc(-c3ccccc3)cn2c1 [Compound 75] , can you help?
Resp: > 50 µM

Req: Looking for the measured IC50 of COc1cccc(-c2cn3cc(C(=O)NC(C)C)ccc3n2)c1 [Compound 20] , can you help?
Resp: 24 µM

Req: Looking for the measured IC50 of CC(NC(=O)c1ccc2nc(-c3ccccc3)cn2c1)c1ccccn1 (centres unmarked) [Compound 30] , can you help?
Resp: 6 µM

Req: Looking for the measured IC50 of O=C(CCCCN1CCCCC1)Nc1cccc(-c2cn3cc(C(=O)NC4CCC4)ccc3n2)c1 [Compound 103] , can you help?
Resp: 0.696 µM

Req: Looking for the measured IC50 of CC(C)(C)C1CC(NC(=O)c2ccc3nc(-c4ccccc4)cn3c2)C1 (centres unmarked) [Compound 120] , can you help?
Resp: > 50 µM

Req: Looking for the measured IC50 of O=C(CN1CCCCC1)Nc1cccc(-c2cn3cc(C(=O)NC4CCC4)ccc3n2)c1 [Compound 112] , can you help?
Resp: 0.172 µM

Req: Looking for the measured IC50 of CC(C)NC(=O)c1ccc2nc(-c3cccc(NS(=O)(=O)NCCOCCO)c3)cn2c1 [Compound 42] , can you help?
Resp: 0.55 µM

Req: Looking for the measured IC50 of N#Cc1ccc(-c2cn3cc(C(=O)NC4CCC4)ccc3n2)cc1 [Compound 86] , can you help?
Resp: 1.3 µM

Req: Looking for the measured IC50 of O=C(NC1CC2(CC2)C1)c1ccc2nc(-c3ccccc3)cn2c1 [Compound 118] , can you help?
Resp: 0.723 µM

Req: Looking for the measured IC50 of O=C(N[C@@H]1CC[C@@H]1c1ccccc1)c1ccc2nc(-c3ccccc3)cn2c1 [Compound 115] , can you help?
Resp: > 50 µM
